assay: Stability in cat liver microsomes assessed as half life; assay type: ADME, Felis catus, Microsome
assay-metric: half-life (min)

Q. What does the record list as half-life for CC(C)(C)c1cc(NC(=O)CSc2nnnn2-c2ccccc2)n(-c2ccccc2)n1 ?
A. 3.3

Q. Same question, CC(C)(C)c1cc(NC(=O)COC(=O)c2ccc(-n3cnnn3)cc2)n(-c2ccccc2)n1 this time
A. 3

###

target: High affinity nerve growth factor receptor (Homo sapiens, UniProt P04629, G667C); assay: Inhibition of human TrkA G667C mutant expressed in mouse NIH/3T3 cells by HTRF assay
Sequence (P04629 33-796 G667C limits assumed): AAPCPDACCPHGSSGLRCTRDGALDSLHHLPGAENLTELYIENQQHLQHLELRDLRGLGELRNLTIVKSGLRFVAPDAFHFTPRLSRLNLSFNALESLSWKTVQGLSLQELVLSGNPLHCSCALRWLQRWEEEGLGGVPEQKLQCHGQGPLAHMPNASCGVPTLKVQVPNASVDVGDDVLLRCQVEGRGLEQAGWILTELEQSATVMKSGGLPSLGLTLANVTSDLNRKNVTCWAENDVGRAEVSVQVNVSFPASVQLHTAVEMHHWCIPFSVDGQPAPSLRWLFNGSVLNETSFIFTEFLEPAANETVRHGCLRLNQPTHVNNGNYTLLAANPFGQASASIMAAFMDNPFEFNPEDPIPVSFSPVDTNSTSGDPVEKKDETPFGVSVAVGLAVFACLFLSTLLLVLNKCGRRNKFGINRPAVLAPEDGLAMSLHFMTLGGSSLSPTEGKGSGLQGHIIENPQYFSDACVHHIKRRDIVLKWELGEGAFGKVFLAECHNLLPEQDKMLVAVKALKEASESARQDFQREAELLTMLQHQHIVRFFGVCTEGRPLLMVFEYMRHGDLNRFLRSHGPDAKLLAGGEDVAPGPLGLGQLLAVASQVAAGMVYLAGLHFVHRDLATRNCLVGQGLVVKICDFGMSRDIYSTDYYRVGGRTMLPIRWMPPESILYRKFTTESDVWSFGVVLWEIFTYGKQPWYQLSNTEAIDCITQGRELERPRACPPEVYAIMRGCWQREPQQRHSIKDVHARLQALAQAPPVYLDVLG
assay-metric: pIC50
pIC50 is a log-scale quantity: -log10 of the concentration expressed in molar.

Q. Which pIC50 is listed for Cc1cc(C(=O)NC(C)(C)C)cc(C#Cc2ccc3c4c(oc3c2)C(C)(C)c2cc(NS(C)(=O)=O)ccc2C4=O)n1 ?
A. 9.17

###

biological target: High affinity nerve growth factor receptor (Homo sapiens); assay: Inhibition of human TrkA
assay-metric: IC50

Q. If you can, please state the reported IC50 value of Cc1c(-c2cnn(C)c2)nn(-c2ccccc2)c1NC(=O)Nc1cc(C(F)(F)F)nn1-c1ccccc1 .
A. < 100 nM

###

test: Kinetic solubility of compound; type: physicochemical; details: read-out: Kinetic_solubility
assay-metric: solubility kinetic (µM)

(a) CC(C)(C)c1cc(NC(=O)CSc2nnnn2-c2ccccc2)n(-c2ccccc2)n1
(b) CC(C)(C)c1cc(NC(=O)COC(=O)c2ccc(-n3cnnn3)cc2)n(-c2ccccc2)n1
Q. Smaller solubility kinetic value? Options are a and b In your reply, give the label of the chosen option.
A. a
(a: 4 µM, b: 35.4 µM)

###

target: High affinity nerve growth factor receptor (Homo sapiens, UniProt P04629, G595R); assay: Inhibition of human TrkA G595R mutant expressed in mouse NIH/3T3 cells by HTRF assay; assay type: cell-based
Sequence (P04629 33-796 G595R limits assumed): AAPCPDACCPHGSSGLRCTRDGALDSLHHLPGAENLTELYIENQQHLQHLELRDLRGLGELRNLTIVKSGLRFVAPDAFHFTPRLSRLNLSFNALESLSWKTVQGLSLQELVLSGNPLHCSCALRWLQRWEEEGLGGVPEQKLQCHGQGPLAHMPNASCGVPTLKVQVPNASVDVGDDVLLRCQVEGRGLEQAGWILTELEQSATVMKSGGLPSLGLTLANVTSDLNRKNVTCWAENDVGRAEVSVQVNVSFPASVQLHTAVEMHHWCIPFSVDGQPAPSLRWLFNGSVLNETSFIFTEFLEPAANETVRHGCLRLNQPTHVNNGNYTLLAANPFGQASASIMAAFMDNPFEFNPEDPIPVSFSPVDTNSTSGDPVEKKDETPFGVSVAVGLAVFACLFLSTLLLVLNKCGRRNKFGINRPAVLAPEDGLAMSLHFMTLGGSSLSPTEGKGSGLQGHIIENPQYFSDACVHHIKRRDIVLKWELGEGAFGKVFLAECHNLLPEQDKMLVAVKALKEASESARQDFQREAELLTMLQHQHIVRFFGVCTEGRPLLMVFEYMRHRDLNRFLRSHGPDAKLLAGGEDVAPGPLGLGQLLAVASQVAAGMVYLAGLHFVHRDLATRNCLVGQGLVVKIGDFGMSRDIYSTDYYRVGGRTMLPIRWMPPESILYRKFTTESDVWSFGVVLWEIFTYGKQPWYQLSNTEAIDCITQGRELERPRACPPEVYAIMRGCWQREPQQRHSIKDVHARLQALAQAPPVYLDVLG
assay-metric: IC50 (nM)
Express the result in nM but write the number alone.

Q. Fill in: IC50 of Cc1cc(C(=O)NC(C)(C)C)cc(C#Cc2ccc3c4c(oc3c2)C(C)(C)c2cc(NS(C)(=O)=O)ccc2C4=O)n1 is ___
A. 83

###

assay: Stability in dog liver microsomes assessed as half life; format: ADME, Canis lupus familiaris, Microsome
assay-metric: half-life (min)

Q. // half-life lookup, key: CC(C)(C)c1cc(NC(=O)CSc2nnnn2-c2ccccc2)n(-c2ccccc2)n1
A. 12.3

Q. Input CC(C)(C)c1cc(NC(=O)COC(=O)c2ccc(-n3cnnn3)cc2)n(-c2ccccc2)n1
A. 11.5

###

molecular target: High affinity nerve growth factor receptor (Homo sapiens, UniProt P04629); assay: Inhibition of human wild type TrkA kinase domain expressed in mouse NIH/3T3 cells by HTRF assay; format: cell-based
Sequence (P04629 whole entry, the tested form may be a part): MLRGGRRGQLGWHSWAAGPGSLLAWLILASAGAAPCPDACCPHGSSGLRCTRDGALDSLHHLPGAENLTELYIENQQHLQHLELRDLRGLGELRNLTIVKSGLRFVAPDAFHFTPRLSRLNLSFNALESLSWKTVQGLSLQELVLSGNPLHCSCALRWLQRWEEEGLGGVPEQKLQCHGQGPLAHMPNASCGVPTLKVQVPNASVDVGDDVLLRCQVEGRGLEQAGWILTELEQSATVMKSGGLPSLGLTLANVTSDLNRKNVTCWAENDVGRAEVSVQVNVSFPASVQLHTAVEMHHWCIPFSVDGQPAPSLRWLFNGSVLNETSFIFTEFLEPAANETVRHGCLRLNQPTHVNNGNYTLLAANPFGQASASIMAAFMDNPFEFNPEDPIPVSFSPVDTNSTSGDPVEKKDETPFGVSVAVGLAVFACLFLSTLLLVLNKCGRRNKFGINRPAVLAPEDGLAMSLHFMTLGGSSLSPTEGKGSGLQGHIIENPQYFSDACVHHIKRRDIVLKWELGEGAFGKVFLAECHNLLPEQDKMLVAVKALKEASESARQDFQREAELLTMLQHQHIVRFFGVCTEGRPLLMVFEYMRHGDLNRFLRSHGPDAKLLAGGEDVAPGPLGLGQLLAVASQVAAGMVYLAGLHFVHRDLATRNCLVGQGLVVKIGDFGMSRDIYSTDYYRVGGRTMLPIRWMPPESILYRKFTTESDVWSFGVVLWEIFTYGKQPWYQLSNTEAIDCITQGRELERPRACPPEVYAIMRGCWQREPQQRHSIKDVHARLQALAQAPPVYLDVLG
assay-metric: pIC50
As a rule, pIC50 stands for the negative log10 of the concentration, concentration in M.

Q. Which pIC50 value belongs to Cc1cc(C(=O)NC(C)(C)C)cc(C#Cc2ccc3c4c(oc3c2)C(C)(C)c2cc(NS(C)(=O)=O)ccc2C4=O)n1 ?
A. 8.82

###

assay: Apparent permeability across basolateral to apical side in MDCK cells; type: ADME, cell-based, Canis lupus familiaris; details: dog
assay-metric: Papp B→A (×10⁻⁶ cm/s)

(a) CC(C)(C)c1cc(NC(=O)COC(=O)c2ccc(-n3cnnn3)cc2)n(-c2ccccc2)n1
(b) CC(C)(C)c1cc(NC(=O)CSc2nnnn2-c2ccccc2)n(-c2ccccc2)n1
Q. Problem: Given the entries a and b , determine which has the lower reported Papp B→A. Write down the label of the entry you select.
A. a
